Entries annotated with measured inhibition at 0.1 µM
- Target of assay: mu receptor (Rattus norvegicus)
- Construct: rat whole brain minus cerebellum for mu was homogenized; from tissue; host or cells: brain of male Sprague Dawley rats, whole brain minus cerebellum, homogenate fraction
- Sequence (P33535 whole entry): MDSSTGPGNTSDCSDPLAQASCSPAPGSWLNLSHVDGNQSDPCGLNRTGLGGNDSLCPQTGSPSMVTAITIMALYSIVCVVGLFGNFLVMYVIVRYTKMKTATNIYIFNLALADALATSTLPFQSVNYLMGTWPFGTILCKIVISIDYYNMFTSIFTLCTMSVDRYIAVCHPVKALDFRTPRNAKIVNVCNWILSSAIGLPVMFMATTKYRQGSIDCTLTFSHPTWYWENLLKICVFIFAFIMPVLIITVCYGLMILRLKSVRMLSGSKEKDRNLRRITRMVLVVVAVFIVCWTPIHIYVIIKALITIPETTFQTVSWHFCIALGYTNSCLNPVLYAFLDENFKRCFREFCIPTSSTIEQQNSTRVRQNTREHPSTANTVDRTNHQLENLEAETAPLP
- Experiment notes: opioid receptor binding assay, [3H] NAL (tritiated naloxone), mu receptor
- Design: species or system rat (Male Sprague Dawley), brain minus cerebellum
- Condition label: 20 min, read-out: % displacement at 100 nM, 100 nM test compound; [3H] naloxone 0.5 nM
Counter-ions that a name gives are not always drawn.

# Molecule, Reading unit, inhibition at 0.1 µM
data = [
    ("CCNC(=O)CCCNC(=O)C(Cc1ccccc1)CN1CC[C@@](C)(c2cccc(O)c2)[C@@H](C)C1 (stereo partly drawn) [Example 64, monohydrochloride]", "%", 100),
    ("CCNC(=O)CCNC(=O)C(Cc1ccccc1)CN1CC[C@@](C)(c2cccc(O)c2)[C@@H](C)C1 (stereo partly drawn) [Example 60, monohydrochloride]", "%", 100),
    ("C[C@H]1CN(CCC(C(=O)NCCC(=O)OCc2ccccc2)C2CCCCC2)CC[C@@]1(C)c1cccc(O)c1 (relative stereo) [Example 25, hydrochloride monohydrate]", "%", 100),
    ("CC(C)CNC(=O)CNC(=O)C(Cc1ccccc1)CN1CC[C@@](C)(c2cccc(O)c2)[C@@H](C)C1 (stereo partly drawn) [Example 50, monohydrate hydrochloride]", "%", 100),
    ("C[C@H]1CN(CC(Cc2ccccc2)C(=O)NCC(=O)NCC(=O)NCc2ccccc2)CC[C@@]1(C)c1cccc(O)c1 (relative stereo) [Example 73]", "%", 90),
    ("C[C@H]1CN(CCC(C(=O)NCCCC(=O)O)C2CCCCC2)CC[C@@]1(C)c1cccc(O)c1 (relative stereo) [Example 28, monohydrate]", "%", 95),
    ("CCOC(=O)CN(C)C(=O)CNC(=O)C(Cc1ccccc1)CN1CC[C@@](C)(c2cccc(O)c2)[C@@H](C)C1 (relative stereo) [Example 75]", "%", 99),
    ("CC(C)OC(=O)CNC(=O)C(Cc1ccccc1)CN1CC[C@@](C)(c2cccc(O)c2)[C@@H](C)C1 (stereo partly drawn) [Example 51, monohydrochloride]", "%", 97),
    ("C[C@H]1CN(CC(Cc2ccccc2)C(=O)N(C)CC(=O)O)CC[C@@]1(C)c1cccc(O)c1 (relative stereo) [Example 66, monohydrate]", "%", 85),
    ("CCOC(=O)CNC(=O)C(CC1CCCCC1)CN1CC[C@@](C)(c2cccc(O)c2)[C@@H](C)C1 (relative stereo) [Example 29, monohydrochloride]", "%", 100),
    ("C[C@H]1CN(CC(CC2CCCCC2)C(=O)NCC(N)=O)CC[C@@]1(C)c1cccc(O)c1 (relative stereo) [Example 33, monohydrochloride]", "%", 100),
    ("CNC(=O)CNC(=O)C(CCN1CC[C@@](C)(c2cccc(O)c2)[C@@H](C)C1)C1CCCCC1 (relative stereo) [Example 21, hydrochloride]", "%", 100),
]

---

Catalogue of Ratio (AD50 mouse writhing test / ED50 mouse diarrhea test) readings, one per entry.
- Target of assay: peripheral opioid receptors (Mus musculus)
- Construct: Mice maintained (6 mice/cage) on 0.01M saccharin water with 1 g/1 morphine sulfate; from tissue; host or cells: living morphine-maintained mice (in vivo test; endogenous receptor)
- Sequence (P42866 whole entry): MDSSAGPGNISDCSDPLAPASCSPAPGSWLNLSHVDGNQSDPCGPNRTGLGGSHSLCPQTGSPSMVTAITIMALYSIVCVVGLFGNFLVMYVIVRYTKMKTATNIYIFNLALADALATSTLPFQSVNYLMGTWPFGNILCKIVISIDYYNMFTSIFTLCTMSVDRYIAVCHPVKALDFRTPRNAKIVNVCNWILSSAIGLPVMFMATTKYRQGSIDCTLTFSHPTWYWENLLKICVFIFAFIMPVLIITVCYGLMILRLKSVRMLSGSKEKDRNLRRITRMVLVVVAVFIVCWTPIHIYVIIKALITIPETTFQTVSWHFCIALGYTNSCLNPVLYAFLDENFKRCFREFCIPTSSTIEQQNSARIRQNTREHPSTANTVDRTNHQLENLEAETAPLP
- Experiment notes: precipitated diarrhea in morphine-maintained mice (peripheral opioid activity) and comparison with the writhing test
- Format: in vivo
- Condition label: higher ratio = greater relative antagonism of peripheral opioid receptors
Counter-ions that a name gives are not always drawn.
Reported endpoint: Ratio (AD50 mouse writhing test / ED50 mouse diarrhea test)

# Molecule, Val
measured = [
    ("CCOC(=O)C(CC1CCCCC1)CN1CC[C@@](C)(c2cccc(O)c2)[C@@H](C)C1 (relative stereo) [Example 5A, hydrochloride]", 20),
    ("CNC(=O)COC(=O)CNC(=O)C(Cc1ccccc1)CN1CC[C@@](C)(c2cccc(O)c2)[C@@H](C)C1 (relative stereo) [Example 88]", 193),
    ("C[C@H]1CN(CC(Cc2ccccc2)C(=O)NCC(N)=O)CC[C@@]1(C)c1cccc(O)c1 (stereo partly drawn) [Example 46, monohydrochloride monohydrate]", 571),
    ("CNC(=O)CCNC(=O)C(CCN1CC[C@@](C)(c2cccc(O)c2)[C@@H](C)C1)C1CCCCC1 (relative stereo) [Example 18, monohydrochloride]", "> 888"),
    ("CCNC(=O)CNC(=O)C(Cc1ccccc1)CN1CC[C@@](C)(c2cccc(O)c2)[C@@H](C)C1 (stereo partly drawn) [Example 45]", 11),
    ("C[C@H]1CN(CC(Cc2ccccc2)C(=O)NCC(=O)OC2CCCCC2)CC[C@@]1(C)c1cccc(O)c1 (stereo partly drawn) [Example 52, monohydrochloride]", 40),
    ("C[C@H]1CN(CC(CC2CCCCC2)C(=O)NCC(N)=O)CC[C@@]1(C)c1cccc(O)c1 (relative stereo) [Example 33, monohydrochloride]", 60),
    ("CCOC(=O)CNC(=O)C(CC1CCCCC1)CN1CC[C@@](C)(c2cccc(O)c2)[C@@H](C)C1 (relative stereo) [Example 29, monohydrochloride]", 23),
    ("C[C@H]1CN(CCC(C(=O)NCCC(=O)O)C2CCCCC2)CC[C@@]1(C)c1cccc(O)c1 (relative stereo) [Example 26, monohydrate]", 250),
    ("CNC(=O)CCCNC(=O)C(Cc1ccccc1)CN1CC[C@@](C)(c2cccc(O)c2)[C@@H](C)C1 (stereo partly drawn) [Example 62, monohydrochloride monohydrate]", 122),
    ("C[C@H]1CN(CC(Cc2ccccc2)C(=O)O)CC[C@@]1(C)c1cccc(O)c1 (relative stereo) [Example 4B, monohydrate]", 809),
    ("C[C@H]1CN(CC(CC2CCCCC2)C(=O)NCCCC(N)=O)CC[C@@]1(C)c1cccc(O)c1 (stereo partly drawn) [Example 40, hydrochloride]", 3.5),
    ("C[C@H]1CN(CCC(C(=O)NCC(N)=O)C2CCCCC2)CC[C@@]1(C)c1cccc(O)c1 (relative stereo) [Example 20, hydrochloride monohydrate]", 802),
    ("CNC(=O)CCNC(=O)C(Cc1ccccc1)CN1CC[C@@](C)(c2cccc(O)c2)[C@@H](C)C1 (stereo partly drawn) [Example 59, monohydrochloride]", 11),
    ("C[C@H]1CN(CC(CC2CCCCC2)C(=O)NCC(=O)O)CC[C@@]1(C)c1cccc(O)c1 (relative stereo) [Example 30, monohydrate]", "> 2353"),
    ("CCOC(=O)CN(C)C(=O)CNC(=O)C(Cc1ccccc1)CN1CC[C@@](C)(c2cccc(O)c2)[C@@H](C)C1 (relative stereo) [Example 75]", 71),
    ("CCNC(=O)CCCNC(=O)C(Cc1ccccc1)CN1CC[C@@](C)(c2cccc(O)c2)[C@@H](C)C1 (stereo partly drawn) [Example 64, monohydrochloride]", "> 45"),
    ("C[C@H]1CN(CC(Cc2ccccc2)C(=O)NCC(=O)OCC2CCCCC2)CC[C@@]1(C)c1cccc(O)c1 (stereo partly drawn) [Example 53, monohydrochloride]", "> 23"),
    ("C[C@H]1CN(CC(CC2CCCCC2)C(=O)NCCC(=O)OCc2ccccc2)CC[C@@]1(C)c1cccc(O)c1 (relative stereo) [Example 34, monohydrochloride]", 84),
    ("COC(=O)COC(=O)CNC(=O)C(Cc1ccccc1)CN1CC[C@@](C)(c2cccc(O)c2)[C@@H](C)C1 (relative stereo) [Example 85]", 190),
    ("COc1cccc([C@]2(C)CCN(CC(Cc3ccccc3)C(=O)O)C[C@@H]2C)c1 (single isomer, unassigned) [Example 79]", 13),
    ("CCOC(=O)C(Cc1ccccc1)CN1CC[C@@](C)(c2cccc(O)c2)[C@@H](C)C1 (relative stereo) [Example 4A, hydrochloride]", 9),
    ("C[C@H]1CN(CCC(C(=O)O)C2CCCCC2)CC[C@@]1(C)c1cccc(O)c1 (relative stereo) [Example 9B, hydrochloride]", 75),
    ("C[C@H]1CN(CCC(C(=O)NCCC(N)=O)C2CCCCC2)CC[C@@]1(C)c1cccc(O)c1 (relative stereo) [Example 17, monohydrochloride]", "> 667"),
]
